Tested on: Staphylococcus aureus 447
Test: broth micro-dilution MIC
Type: cell-based
# MIC annotations

CNC(CC(C)C)C(=O)NC1C(=O)NC(CC(N)=O)C(=O)NC2C(=O)NC3C(=O)NC(C(=O)NC(C(=O)O)c4cc(O)cc(O)c4-c4cc3ccc4O)C(OC3CC(C)(N)C(O)C(C)O3)c3ccc(c(Cl)c3)Oc3cc2cc(c3OC2OC(CO)C(O)C(O)C2OC2CC(C)(NCc3c4ccccc4c(Cl)c4ccccc34)C(O)C(C)O2)Oc2ccc(cc2Cl)C1O (stereo not drawn)
8 µg/mL
CNC(CC(C)C)C(=O)NC1C(=O)NC(CC(N)=O)C(=O)NC2C(=O)NC3C(=O)NC(C(=O)NC(C(=O)O)c4cc(O)cc(O)c4-c4cc3ccc4O)C(OC3CC(C)(N)C(O)C(C)O3)c3ccc(c(Cl)c3)Oc3cc2cc(c3OC2OC(CO)C(O)C(O)C2OC2CC(C)(NCc3cnc4ccccc4c3)C(O)C(C)O2)Oc2ccc(cc2Cl)C1O (stereo not drawn)
1 µg/mL
CNC(CC(C)C)C(=O)NC1C(=O)NC(CC(N)=O)C(=O)NC2C(=O)NC3C(=O)NC(C(=O)NC(C(=O)O)c4cc(O)cc(O)c4-c4cc3ccc4O)C(OC3CC(C)(N)C(O)C(C)O3)c3ccc(c(Cl)c3)Oc3cc2cc(c3OC2OC(CO)C(O)C(O)C2OC2CC(C)(NCCCCCCCCCCc3ccccc3)C(O)C(C)O2)Oc2ccc(cc2Cl)C1O (stereo not drawn)
2 µg/mL
CNC(CC(C)C)C(=O)NC1C(=O)NC(CC(N)=O)C(=O)NC2C(=O)NC3C(=O)NC(C(=O)NC(C(=O)O)c4cc(O)cc(O)c4-c4cc3ccc4O)C(OC3CC(C)(N)C(O)C(C)O3)c3ccc(c(Cl)c3)Oc3cc2cc(c3OC2OC(CO)C(O)C(O)C2OC2CC(C)(NCc3ccc(-c4ccc(C)c(C)c4)cc3)C(O)C(C)O2)Oc2ccc(cc2Cl)C1O (stereo not drawn)
0.5 µg/mL
CNC(CC(C)C)C(=O)NC1C(=O)NC(CC(N)=O)C(=O)NC2C(=O)NC3C(=O)NC(C(=O)NC(C(=O)O)c4cc(O)cc(O)c4-c4cc3ccc4O)C(OC3CC(C)(N)C(O)C(C)O3)c3ccc(c(Cl)c3)Oc3cc2cc(c3OC2OC(CO)C(O)C(O)C2OC2CC(C)(NCC3CCCCC3)C(O)C(C)O2)Oc2ccc(cc2Cl)C1O (stereo not drawn)
1 µg/mL

Next item in the queue.
Lookup result for CNC(CC(C)C)C(=O)NC1C(=O)NC(CC(N)=O)C(=O)NC2C(=O)NC3C(=O)NC(C(=O)NC(C(=O)O)c4cc(O)cc(O)c4-c4cc3ccc4O)C(OC3CC(C)(N)C(O)C(C)O3)c3ccc(c(Cl)c3)Oc3cc2cc(c3OC2OC(CO)C(O)C(O)C2OC2CC(C)(NCc3ccc(OCCOC(C)(C)C)cc3)C(O)C(C)O2)Oc2ccc(cc2Cl)C1O (stereo not drawn) ; measured MIC: 2 µg/mL
